Assign protein stability index to each entry below.
Test system: Saccharomyces cerevisiae
Experiment: protein stability index of tFT-peptide fusion (C-terminal peptide) (PSI (0-1 scale)); higher = more stable (slower turnover)
Details: genetic background: das1 deletion; temperature: 30 C
# respond with the number and nothing more

Hey, Saccharomyces cerevisiae data for "VLSCIPRLAIAA" : protein stability index came out at 0.284

Measured protein stability index for this entry "EGGLGDRLLGVG" on Saccharomyces cerevisiae: 0.501

Observed protein stability index on Saccharomyces cerevisiae, entry "TSFCIFFVRFVI" , equals 0.365

Value (protein stability index, Saccharomyces cerevisiae) for record "WPRSFSIILLSR" = 0.265

Query "SRFFSCCVFPSF" on Saccharomyces cerevisiae; protein stability index returned: 0.67

Fill in: Saccharomyces cerevisiae protein stability index for "SVLAIWLTVTLK" = 0.146

// assay Saccharomyces cerevisiae, entry "YRLTIVWFFLAL" , protein stability index value = 0.354

The recorded protein stability index with Saccharomyces cerevisiae for "PETSRFALNEWG" was 0.665

# lookup: "LWERRSRQLTMF" on Saccharomyces cerevisiae, protein stability index = 0.687

Measured protein stability index (Saccharomyces cerevisiae), entry "KHKIIGKYQRQI" : 0.629

Assay Saccharomyces cerevisiae, sample "FVSSLLPLLTLL" , protein stability index read: 0.608

Record "YLDRFIFIYNIF" / Saccharomyces cerevisiae, protein stability index recorded as 0.599

Field protein stability index (system: Saccharomyces cerevisiae) for entry "RGVPPPPWTPPP" = 0.679

Log: Saccharomyces cerevisiae, sequence "LFFWFMYLRRLI" , protein stability index = 0.403

// returns protein stability index for "FLYIPLYCRLSF" with Saccharomyces cerevisiae; value = 0.302

// assay Saccharomyces cerevisiae, entry "FVCFSFFFPFLL" , protein stability index value = 0.37

// protein stability index (Saccharomyces cerevisiae) for "MGDFGFIFVFFL" = 0.427

Saccharomyces cerevisiae data for "ALTLSYAIKLKV" ; its protein stability index: 0.313

Value sought: protein stability index, system Saccharomyces cerevisiae, item "SQCVVYLSVRFS" . Result: 0.34

###

Hi there, I'd appreciate the recorded protein stability index for every entry that follows.
System: Saccharomyces cerevisiae
Test: protein stability index of tFT-peptide fusion (C-terminal peptide) (PSI (0-1 scale)); higher = more stable (slower turnover)
Conditions: genetic background: das1 deletion; temperature: 30 C
# answer = number (no unit)

Notebook: KVNENWKRYGYK [FDC1 C-terminal 12 aa] , protein stability index read as 0.681

Given item KAASLSLKSTKY [PRP5 C-terminal 12 aa] , the value recorded as its protein stability index is 0.712

Quick note, protein stability index for LIDSVKKKVNND [SAC3 C-terminal 12 aa] landed at 0.681

Form field protein stability index, entry SSYNSNVGHIKN [WHI3 C-terminal 12 aa] : 0.705

// protein stability index lookup, sequence = QGKAFYDRIKDL [RFS1 C-terminal 12 aa] , result: 0.683

Query VMLFSSNHQALG [MAG2 C-terminal 12 aa] yields protein stability index of 0.704

Measured protein stability index of LITTRTVHRSLD [YEL076C-A C-terminal 12 aa] : 0.696

For record TEEVEKAISKSQ [YFH1 C-terminal 12 aa] the listed protein stability index is 0.702

Lab book: protein stability index of FRTDEVYAAWRD [KAE1 C-terminal 12 aa] noted as 0.689

Looking up RLKLDYSLIFPQ [MEI5 C-terminal 12 aa] , I found its protein stability index recorded as 0.7

The reported value for VVVCRLHFSLPV [YKL111C C-terminal 12 aa] in terms of protein stability index is 0.562

sequence VKSLQVKKSHLK [CDC12 C-terminal 12 aa] , protein stability index observed: 0.704

Value of protein stability index reported for the sequence VDTILDEDFLLR [APC11 C-terminal 12 aa] is 0.715

Notebook: MIENEKQNPAKQ [OSH6 C-terminal 12 aa] , protein stability index read as 0.693

Reported protein stability index of FDTLIVHHFSSE [KHA1 C-terminal 12 aa] : 0.733

Data point: DDDGDYFEHDEL [KAR2 C-terminal 12 aa] ; protein stability index = 0.688

protein stability index reading for MMGFSNFATSKK [SNU23 C-terminal 12 aa] : 0.728

Looking up TKEEIMHGLQAK [RPN5 C-terminal 12 aa] , I see its protein stability index listed as 0.682

The sequence identified as GGKDKMVRLWTH [RSA4 C-terminal 12 aa] registered its protein stability index at 0.691

Recorded result, MDLKRFKGEFSF [PEX5 C-terminal 12 aa] , protein stability index: 0.698

Measured protein stability index of VSSLRKHGEHYS [TRM82 C-terminal 12 aa] : 0.704

Item: KAFFISKTLPCI [YLR112W C-terminal 12 aa] | protein stability index: 0.714

Recorded result, SLIPRFDNLLSK [GGC1 C-terminal 12 aa] , protein stability index: 0.706

Reported protein stability index of FKLHNETRCRNR [VPS71 C-terminal 12 aa] : 0.68

Reported protein stability index for PIKGGDKASSEL [ATG5 C-terminal 12 aa] was 0.679
